Listed here: items and their measured cytotoxicity at 10 µM.
assay: Toxicity liver stage against HepG2, at 10uM; assay type: cell-based; set-up: test concentration 10 uM, cell line HepG2-A16-CD81EGFP; details: human, HepG2-A16-CD81EGFP cells; read-out: INHIBITION
testReadout: cytotoxicity at 10 µM (%)

compound: CCC1(CO)CCCN(C(=O)c2cc(COc3cccc(F)c3)[nH]n2)C1 (centres undefined)
testReadout: cytotoxicity at 10 µM
measuredResult: 5.31

compound: CCOCCNC(=O)c1cccc(Cn2nc(C)cc2C)c1
testReadout: cytotoxicity at 10 µM
measuredResult: -7.69

compound: CCOc1ccc(CCCC(=O)N2CC[C@H](NC(C)=O)C2)cc1C
testReadout: cytotoxicity at 10 µM
measuredResult: -16

compound: COC1CCCN(Cc2cc(O)c3cc(C)cc(C)c3n2)C1 (centres undefined)
testReadout: cytotoxicity at 10 µM
measuredResult: 3.54

compound: CC(C)c1noc(CN2CCN(C(=O)OC(C)(C)C)C(C)C2)n1 (centres undefined)
testReadout: cytotoxicity at 10 µM
measuredResult: 2.24

compound: O=C(NC1CCCC1)c1nc2c(o1)CN(CCO)C2
testReadout: cytotoxicity at 10 µM
measuredResult: 13.2

compound: O=C(c1cccs1)N1CCCC2(COCCN(c3cccnc3)C2)C1 (centres undefined)
testReadout: cytotoxicity at 10 µM
measuredResult: -70.3

compound: Cc1ccc(-c2cc(C(=O)NCCC3=CCCCC3)[nH]n2)o1
testReadout: cytotoxicity at 10 µM
measuredResult: -55.1

compound: C1CC1c1nsc(N2CCN(C3CC3)CC2)n1
testReadout: cytotoxicity at 10 µM
measuredResult: -16.4

compound: Cc1nn(CCCNC(=O)C2CCN(S(C)(=O)=O)CC2)c(Cl)c1Cl
testReadout: cytotoxicity at 10 µM
measuredResult: -11.3

compound: CC1CCc2nc(O)c(C(=O)NCc3ccccc3F)cc2C1 (centres undefined)
testReadout: cytotoxicity at 10 µM
measuredResult: 4.47

compound: CC(C)c1nnc(CN2CCCC(c3cc(C(N)=O)[nH]n3)C2)o1 (centres undefined)
testReadout: cytotoxicity at 10 µM
measuredResult: -29.7

compound: CN(C)C(=O)N1CCN(C(=O)C(c2ccccc2F)N(C)C)CC1 (centres undefined)
testReadout: cytotoxicity at 10 µM
measuredResult: -0.665

compound: CCC[C@H]1CN(S(=O)(=O)c2ccc(CC)s2)C[C@@H]1N
testReadout: cytotoxicity at 10 µM
measuredResult: 4.69

compound: CCc1nc2ccccc2n1C(CC)C(=O)N(C)Cc1nc(C)c[nH]1 (centres undefined)
testReadout: cytotoxicity at 10 µM
measuredResult: -2.53

compound: CSc1ccc(NC(=O)NCC(O)C2CC2)cc1F (centres undefined)
testReadout: cytotoxicity at 10 µM
measuredResult: 6.32

compound: Cc1noc(C)c1S(=O)(=O)N1CCC(n2cccn2)CC1
testReadout: cytotoxicity at 10 µM
measuredResult: 2.63

compound: Cc1ccc(C(=O)N(C)Cc2cc(C)on2)cn1
testReadout: cytotoxicity at 10 µM
measuredResult: -3.05

compound: CCC[C@@H]1CN(Cc2cc3c(cc2OC)OCCO3)C[C@H]1C(=O)O
testReadout: cytotoxicity at 10 µM
measuredResult: -9.47

compound: O=C(Nc1ccc2c(c1)OCO2)N1CCN(CCn2ccnc2)CC1
testReadout: cytotoxicity at 10 µM
measuredResult: -14.2

compound: CC(O)CN1CCN(C(=O)c2ccc(Cn3cccc3)cc2)CC1 (centres undefined)
testReadout: cytotoxicity at 10 µM
measuredResult: -5.75

compound: Cc1nccn1-c1ccc(N2CCC(N[C@H](C)C(C)C)CC2)cc1
testReadout: cytotoxicity at 10 µM
measuredResult: -6.39

compound: Cc1nc(CN2CCCN(C(=O)COCC3CC3)CC2)cs1
testReadout: cytotoxicity at 10 µM
measuredResult: -11

compound: CC(C)C(C)NC(=O)Nc1cccc2c1CCN(S(C)(=O)=O)C2 (centres undefined)
testReadout: cytotoxicity at 10 µM
measuredResult: -11.3
